biological target: HLA-A*24:03; test: IEDB peptide-MHC binding, purified MHC/direct/fluorescence; filed as Kd, often an IC50 or EC50 that approximates it; bounds were set here for any values at or beyond the usual limits of such assays; details: source organism: Listeria monocytogenes serotype 4b str. H7858
value_type: Kd

1. ERYPGGVSL ≥ 20 µM

* * *

target: HLA-A*02:12; assay: IEDB peptide-MHC binding, purified MHC/competitive/fluorescence; filed as Kd, often an IC50 or EC50 that approximates it; bounds were set here for any values at or beyond the usual limits of such assays; conditions: source organism: Vibrio cholerae 2740-80
Known Kd of a selection of sequences
value_type: Kd

1) KQLPPLAAW ≥ 20 µM
2) IFIRTIYYH ≥ 20 µM

* * *

target: HLA-B*08:01; test: IEDB peptide-MHC binding, purified MHC/competitive/radioactivity; filed as Kd, often an IC50 or EC50 that approximates it; bounds were set here for any values at or beyond the usual limits of such assays; details: source organism: Dengue virus 2 Jamaica/1409/1983
pKd: −log10 of the molar value.
value_type: pKd

1. LTIPPTAGIL 5.96
2. MLKRERNRV 7.28
3. ILCVPNAVIL 5.26
4. WKTWGKAKML 5.42

* * *

molecular target: HLA-B*27:05; assay: IEDB peptide-MHC binding, purified MHC/direct/fluorescence; filed as Kd, often an IC50 or EC50 that approximates it; bounds were set here for any values at or beyond the usual limits of such assays; details: source organism: Influenza A virus (A/swine/Cotes d'Armor/800/00(H1N2))
pKd: −log10 of the molar value.
value_type: pKd

1. GMDPRMCSL ≤ 4.70

* * *

target: HLA-B*18:01; assay: IEDB peptide-MHC binding, purified MHC/competitive/fluorescence; filed as Kd, often an IC50 or EC50 that approximates it; bounds were set here for any values at or beyond the usual limits of such assays; conditions: source organism: Choclo virus
value_type: Kd

1) VMGVIGFGF ≥ 20 µM

* * *

biological target: HLA-B*51:01; test: IEDB peptide-MHC binding, purified MHC/competitive/radioactivity; filed as Kd, often an IC50 or EC50 that approximates it; bounds were set here for any values at or beyond the usual limits of such assays; conditions: source organism: Dengue virus 2 Jamaica/1409/1983
pKd: −log10 of the molar value.
value_type: pKd

1. MAISGDDCV 4.76

* * *

target: HLA-A*24:02; assay: IEDB peptide-MHC binding, purified MHC/competitive/radioactivity; filed as Kd, often an IC50 or EC50 that approximates it; bounds were set here for any values at or beyond the usual limits of such assays; settings: source organism: Dengue virus 3 Singapore/8120/1995
pKd: −log10 of the molar value.
value_type: pKd

1. HMIAGVLFTF 6.37

* * *

target: HLA-B*18:01; test: IEDB peptide-MHC binding, purified MHC/competitive/fluorescence; filed as Kd, often an IC50 or EC50 that approximates it; bounds were set here for any values at or beyond the usual limits of such assays; conditions: source organism: Influenza A virus (A/Yokohama/22/2002(H1N2))
pKd: −log10 of the molar value.
value_type: pKd

1) WTGMVDGWY ≤ 4.70

* * *

molecular target: HLA-A*01:01; experiment: IEDB peptide-MHC binding, purified MHC/direct/fluorescence; filed as Kd, often an IC50 or EC50 that approximates it; bounds were set here for any values at or beyond the usual limits of such assays; settings: source organism: Pseudomonas aeruginosa UCBPP-PA14
pKd: −log10 of the molar value.
value_type: pKd

1. RTGTRLLGR ≤ 4.70

* * *

biological target: HLA-B*57:01; assay: IEDB peptide-MHC binding, purified MHC/competitive/radioactivity; filed as Kd, often an IC50 or EC50 that approximates it; bounds were set here for any values at or beyond the usual limits of such assays; settings: source organism: Dengue virus 4 Philippines/H241/1956
pKd: −log10 of the molar value.
value_type: pKd

1. FASGRKSITL 5.21

* * *

target: HLA-B*27:03; assay: IEDB peptide-MHC binding, purified MHC/competitive/fluorescence; filed as Kd, often an IC50 or EC50 that approximates it; bounds were set here for any values at or beyond the usual limits of such assays; conditions: source organism: Orthohantavirus negraense
pKd: −log10 of the molar value.
value_type: pKd

1) SLLFREVWK ≤ 4.70

* * *

biological target: HLA-A*29:02; assay: IEDB peptide-MHC binding, purified MHC/direct/fluorescence; filed as Kd, often an IC50 or EC50 that approximates it; bounds were set here for any values at or beyond the usual limits of such assays; details: source organism: Listeria monocytogenes serotype 4b str. H7858
pKd: −log10 of the molar value.
value_type: pKd

1) FPDGKPFTL ≤ 4.70
2) ERYPGGVSL ≤ 4.70

* * *

molecular target: HLA-A*02:06; experiment: IEDB peptide-MHC binding, purified MHC/competitive/fluorescence; filed as Kd, often an IC50 or EC50 that approximates it; bounds were set here for any values at or beyond the usual limits of such assays; conditions: source organism: Human immunodeficiency virus type 1 (ELI ISOLATE)
value_type: Kd (µM)

1) SLGQHIYET 0.011

* * *

target: HLA-A*11:01; test: IEDB peptide-MHC binding, purified MHC/competitive/radioactivity; filed as Kd, often an IC50 or EC50 that approximates it; bounds were set here for any values at or beyond the usual limits of such assays; details: source organism: SARS coronavirus Tor2
pKd: −log10 of the molar value.
Measured pKd, listed per entry for reference.
value_type: pKd

1. QQQQGQTVTK 6.31
2. VTGLFKDCSK 5.32
3. KTQFNYFKK 8.65
4. SQILPDPLK 5.34
5. TSFGPLVRK 9.68
6. NTCDGNTFTY 7.63
7. RAFDIYNEK 8.45
8. ALYEQVVMDY 5.46
9. VVMDYLDNLK 5.71
10. SFGGASCCLY 6.85
11. MSLYMAISPK 9.70

* * *

target: HLA-B*83:01; test: IEDB peptide-MHC binding, purified MHC/competitive/fluorescence; filed as Kd, often an IC50 or EC50 that approximates it; bounds were set here for any values at or beyond the usual limits of such assays; conditions: source organism: Shigella flexneri 5 str. 8401
value_type: Kd

1. IIMRRFFYF ≥ 5 µM

* * *

target: HLA-A*32:01; experiment: IEDB peptide-MHC binding, purified MHC/competitive/radioactivity; filed as Kd, often an IC50 or EC50 that approximates it; bounds were set here for any values at or beyond the usual limits of such assays; conditions: source organism: Vaccinia virus WR
value_type: Kd (nM)

1) LTFNFTPKI 110
2) GERYYFAYI 19500
3) MTMNIVNFF 1.93
4) KVLFLQQSI 0.704
5) MLFYLEEPI 2.51
6) KMSILGVSI 2.36
7) RTYGLRNSL 0.626
8) HINALEYII 631
9) KTIYAVDSF 6.78
10) SIISLFYTF 5.71

* * *

biological target: HLA-B*15:01; assay: IEDB peptide-MHC binding, purified MHC/competitive/fluorescence; filed as Kd, often an IC50 or EC50 that approximates it; bounds were set here for any values at or beyond the usual limits of such assays; conditions: source organism: Choclo virus
pKd: −log10 of the molar value.
value_type: pKd

1) VMGVIGFGF ≤ 4.70

* * *

target: HLA-A*02:01; assay: IEDB peptide-MHC binding, purified MHC/direct/fluorescence; filed as Kd, often an IC50 or EC50 that approximates it; bounds were set here for any values at or beyond the usual limits of such assays; conditions: source organism: Clostridium botulinum
value_type: Kd (nM)

1) RVYINVVVK 982

* * *

biological target: HLA-A*31:01; experiment: IEDB peptide-MHC binding, purified MHC/direct/fluorescence; filed as Kd, often an IC50 or EC50 that approximates it; bounds were set here for any values at or beyond the usual limits of such assays; conditions: source organism: Reston ebolavirus - Reston
pKd: −log10 of the molar value.
value_type: pKd

1) SKLRALLTL ≤ 4.70

* * *

biological target: HLA-C*05:01; assay: IEDB peptide-MHC binding, purified MHC/direct/fluorescence; filed as Kd, often an IC50 or EC50 that approximates it; bounds were set here for any values at or beyond the usual limits of such assays; details: source organism: Influenza A virus (A/Harbin/1/1988(H1N2))
value_type: Kd

1. LPFQNVHPV ≥ 20 µM

* * *

target: HLA-B*27:03; test: IEDB peptide-MHC binding, purified MHC/competitive/fluorescence; filed as Kd, often an IC50 or EC50 that approximates it; bounds were set here for any values at or beyond the usual limits of such assays; details: source organism: Choclo virus
value_type: Kd

1) VMGVIGFGF ≥ 20 µM

* * *

target: HLA-B*46:01; experiment: IEDB peptide-MHC binding, purified MHC/direct/fluorescence; filed as Kd, often an IC50 or EC50 that approximates it; bounds were set here for any values at or beyond the usual limits of such assays; conditions: source organism: Influenza A virus (A/swine/Cotes d'Armor/800/00(H1N2))
value_type: Kd

1. GMDPRMCSL ≥ 20 µM
